biological target: Prothrombin (Homo sapiens, UniProt P00734)
OBSERVATION_TYPE: Ki (µM)
Give your result in µM as a bare value.

[Q] Query: Ki; subject: CCOC(=O)N[C@@H](CCCCN)C(=O)c1noc(Cc2ccc(OCCc3ccccc3)cc2)n1
[A] 64

----------
Protein target, amino acids: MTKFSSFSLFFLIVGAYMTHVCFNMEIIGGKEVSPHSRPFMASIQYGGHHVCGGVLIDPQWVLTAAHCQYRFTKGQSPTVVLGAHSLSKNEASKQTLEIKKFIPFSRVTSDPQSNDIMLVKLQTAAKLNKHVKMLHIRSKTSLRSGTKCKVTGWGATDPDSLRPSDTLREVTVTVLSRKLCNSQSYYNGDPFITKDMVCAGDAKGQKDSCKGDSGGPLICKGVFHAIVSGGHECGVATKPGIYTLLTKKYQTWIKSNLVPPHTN
OBSERVATION_TYPE: Ki

[Q] Query: Ki; subject: CCOC(=O)N[C@@H](CCCCN)C(=O)c1noc(Cc2ccc(OCCc3ccccc3)cc2)n1
[A] > 150 µM

----------
species on record: Homo sapiens; assay: Selectivity for tryptase over trypsin
OBSERVATION_TYPE: Selectivity ratio
API doc: respond with a numeric literal and nothing else, no unit.

[Q] Query: Selectivity ratio; subject: Cc1cc(C(=O)N[C@@H](CCCCN)C(=O)c2noc(Cc3ccc(OCCc4ccc(Cl)c(Cl)c4)cc3)n2)c(C)o1.Cl
[A] 85

[Q] Next record, please: COCC(=O)N[C@@H](CCCCN)C(=O)c1noc(Cc2ccc(OCCc3ccc(Cl)c(Cl)c3)cc2)n1.Cl
[A] 51

[Q] Next record, please: Cl.NCCCC[C@H](NC(=O)N1CCCC1)C(=O)c1noc(Cc2ccc(OCCc3ccc(Cl)c(Cl)c3)cc2)n1
[A] 119

[Q] Next record, please: Cl.NCCCC[C@H](NC(=O)C1CCOC1)C(=O)c1noc(Cc2ccc(OCCc3ccc(Cl)c(Cl)c3)cc2)n1 (some centres not stated)
[A] 50

[Q] Next record, please: Cl.NCCCC[C@H](NC(=O)c1ccc(Cl)cc1)C(=O)c1noc(Cc2ccc(OCCc3ccc(Cl)c(Cl)c3)cc2)n1
[A] 389

[Q] Next record, please: Cl.NCCCC[C@H](NC(=O)c1ccco1)C(=O)c1noc(Cc2ccc(OCCc3ccc(Cl)c(Cl)c3)cc2)n1
[A] 209

[Q] Next record, please: CC(C)(C)C(=O)N[C@@H](CCCCN)C(=O)c1noc(Cc2ccc(OCCc3ccc(Cl)c(Cl)c3)cc2)n1.Cl
[A] 167

[Q] Next record, please: Cl.NCCCC[C@H](NC(=O)N1CCCCC1)C(=O)c1noc(Cc2ccc(OCCc3ccc(Cl)c(Cl)c3)cc2)n1
[A] 152

[Q] Next record, please: CN(C)C(=O)N[C@@H](CCCCN)C(=O)c1noc(Cc2ccc(OCCc3ccc(Cl)c(Cl)c3)cc2)n1.Cl
[A] 89

[Q] Next record, please: Cl.NCCCC[C@H](NC(=O)c1cccc(F)c1)C(=O)c1noc(Cc2ccc(OCCc3ccc(Cl)c(Cl)c3)cc2)n1
[A] 293

[Q] Next record, please: Cl.NCCCC[C@H](NC(=O)C(F)(F)F)C(=O)c1noc(Cc2ccc(OCCc3ccc(Cl)c(Cl)c3)cc2)n1
[A] 76

[Q] Next record, please: Cl.NCCCC[C@H](NC(=O)N1CCOCC1)C(=O)c1noc(Cc2ccc(OCCc3ccc(Cl)c(Cl)c3)cc2)n1
[A] 153

----------
For each record, write down the corresponding Ki app.
target: Trypsin (Homo sapiens, UniProt P07477+P07478+P35030); experiment: Inhibition of trypsin; type: protein assay
Give your result in nM as a bare value.

[Q] Query: Ki app; subject: CC(C)(C)C(=O)N[C@@H](CCCCN)C(=O)c1noc(Cc2ccc(OCCc3ccc(Cl)c(Cl)c3)cc2)n1.Cl
[A] 625

[Q] Next record, please: Cl.NCCCC[C@H](NC(=O)c1ccc(F)cc1F)C(=O)c1noc(Cc2ccc(OCCc3ccc(Cl)c(Cl)c3)cc2)n1
[A] 1150

[Q] Next record, please: Cl.NCCCC[C@H](NC(=O)C1CCCC1)C(=O)c1noc(Cc2ccc(OCCc3ccc(Cl)c(Cl)c3)cc2)n1
[A] 300

[Q] Next record, please: CCOC(=O)N[C@@H](CCCCN)C(=O)c1noc(Cc2ccc(OCCc3ccccc3)cc2)n1
[A] 190

[Q] Next record, please: CCN(CC)C(=O)N[C@@H](CCCCN)C(=O)c1noc(Cc2ccc(OCCc3ccc(Cl)c(Cl)c3)cc2)n1.Cl
[A] 2400

[Q] Next record, please: Cl.NCCCC[C@H](NC(=O)c1ccc(F)cc1)C(=O)c1noc(Cc2ccc(OCCc3ccc(Cl)c(Cl)c3)cc2)n1
[A] 1100

----------
species: Homo sapiens; assay: Selectivity for tryptase over trypsin
For each record, write down the corresponding Selectivity ratio.

[Q] Query: Selectivity ratio; subject: COCCOC(=O)N[C@@H](CCCCN)C(=O)c1noc(Cc2ccc(OCCc3ccc(Cl)c(Cl)c3)cc2)n1.Cl
[A] 100

[Q] Next record, please: NCCCC[C@H](NC(=O)C1CC1)C(=O)c1noc(Cc2ccc(OCCc3ccc(Cl)c(Cl)c3)cc2)n1
[A] 10

[Q] Next record, please: Cl.NCCCC[C@H](NC(=O)c1ccc(F)cc1F)C(=O)c1noc(Cc2ccc(OCCc3ccc(Cl)c(Cl)c3)cc2)n1
[A] 354

[Q] Next record, please: CCOC(=O)N[C@@H](CCCCN)C(=O)c1noc(Cc2ccc(OCCc3ccc(Cl)c(Cl)c3)cc2)n1.Cl
[A] 81

----------
assay: AUC in rat at 0.5 mg/kg, iv; assay type: ADME, organism-based; design: dose 0.5 mg/kg, route intravenous; conditions: plasma
OBSERVATION_TYPE: AUC

[Q] Query: AUC; subject: Cl.NCCCC[C@H](NC(=O)c1ccc(F)cc1)C(=O)c1noc(Cc2ccc(OCCc3ccc(Cl)c(Cl)c3)cc2)n1
[A] 0.3 µM·h

----------
For each record, write down the corresponding pKi.
assay: Inhibition of elastase; parameters: species or system Homo sapiens; settings: read-out: Ki app
pKi: −log10 of the molar value.

[Q] Query: pKi; subject: CCOC(=O)N[C@@H](CCCCN)C(=O)c1noc(Cc2ccc(OCCc3ccccc3)cc2)n1
[A] < 3.82

[Q] Next record, please: Cl.NCCCC[C@H](NC(=O)c1ccc(F)c(F)c1)C(=O)c1noc(Cc2ccc(OCCc3ccc(Cl)c(Cl)c3)cc2)n1
[A] < 3.82

----------
molecular target: Trypsin (Homo sapiens, UniProt P07477+P07478+P35030); assay: Inhibition of trypsin; assay type: protein assay
For each record, write down the corresponding Ki app.
Give your result in nM as a bare value.

[Q] # get_value(readout= Ki app, system= Trypsin (Homo sapiens, UniProt P07477+P07478+P35030)) for CC(C)C(=O)N[C@@H](CCCCN)C(=O)c1noc(Cc2ccc(OCCc3ccc(Cl)c(Cl)c3)cc2)n1.Cl
[A] 120

[Q] Next record, please: Cl.NCCCC[C@H](NC(=O)N1CCCC1)C(=O)c1noc(Cc2ccc(OCCc3ccc(Cl)c(Cl)c3)cc2)n1
[A] 3800

[Q] Next record, please: Cl.NCCCC[C@H](NC(=O)c1ccc(Cl)cc1)C(=O)c1noc(Cc2ccc(OCCc3ccc(Cl)c(Cl)c3)cc2)n1
[A] 2550

[Q] Next record, please: Cl.NCCCC[C@H](NC(=O)N1CCCCC1)C(=O)c1noc(Cc2ccc(OCCc3ccc(Cl)c(Cl)c3)cc2)n1
[A] 1400

----------
pKi: −log10 of the molar value.
# pKi measurements, system: Vitamin K-dependent protein C (Homo sapiens, UniProt P04070)
# Sequence (P04070 43-197 limits assumed): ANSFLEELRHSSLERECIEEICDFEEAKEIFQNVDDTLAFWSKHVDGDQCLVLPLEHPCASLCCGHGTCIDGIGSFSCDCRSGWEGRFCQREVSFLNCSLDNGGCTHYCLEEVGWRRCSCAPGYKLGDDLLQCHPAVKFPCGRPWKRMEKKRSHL
# Sequence (P04070 212-461 limits assumed): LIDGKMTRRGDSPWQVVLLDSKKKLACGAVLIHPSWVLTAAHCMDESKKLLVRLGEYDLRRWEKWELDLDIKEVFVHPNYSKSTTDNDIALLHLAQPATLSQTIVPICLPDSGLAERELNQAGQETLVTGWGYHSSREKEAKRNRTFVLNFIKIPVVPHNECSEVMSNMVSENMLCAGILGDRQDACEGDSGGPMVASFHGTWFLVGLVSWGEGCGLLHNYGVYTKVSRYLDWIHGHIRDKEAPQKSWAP

[Q] Query: pKi; subject: Cl.NCCCC[C@H](NC(=O)c1ccc(F)c(F)c1)C(=O)c1noc(Cc2ccc(OCCc3ccc(Cl)c(Cl)c3)cc2)n1
[A] < 3.82

[Q] Next record, please: CCOC(=O)N[C@@H](CCCCN)C(=O)c1noc(Cc2ccc(OCCc3ccccc3)cc2)n1
[A] < 3.82

----------
biological target: UniProt:P03951
Sequence (P03951 19-387 limits assumed): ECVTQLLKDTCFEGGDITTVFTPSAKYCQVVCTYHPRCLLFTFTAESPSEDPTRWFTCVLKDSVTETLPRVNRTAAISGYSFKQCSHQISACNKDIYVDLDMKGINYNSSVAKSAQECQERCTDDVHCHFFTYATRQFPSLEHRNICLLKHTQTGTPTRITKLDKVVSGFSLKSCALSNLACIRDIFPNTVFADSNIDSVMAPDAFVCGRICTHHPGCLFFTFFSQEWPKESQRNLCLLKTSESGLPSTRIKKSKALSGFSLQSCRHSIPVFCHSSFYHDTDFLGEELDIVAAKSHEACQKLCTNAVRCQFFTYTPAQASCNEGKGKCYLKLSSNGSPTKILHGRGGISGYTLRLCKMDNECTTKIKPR
Sequence (P03951 388-625 limits assumed): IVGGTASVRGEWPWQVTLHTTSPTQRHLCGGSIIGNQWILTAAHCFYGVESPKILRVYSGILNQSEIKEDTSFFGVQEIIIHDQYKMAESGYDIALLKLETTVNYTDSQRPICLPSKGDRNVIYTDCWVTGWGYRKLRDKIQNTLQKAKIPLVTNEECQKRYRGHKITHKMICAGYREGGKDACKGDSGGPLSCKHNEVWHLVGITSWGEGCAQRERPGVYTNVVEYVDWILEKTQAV
pKi: −log10 of the molar value.
OBSERVATION_TYPE: pKi

[Q] Query: pKi; subject: Cl.NCCCC[C@H](NC(=O)c1ccc(F)c(F)c1)C(=O)c1noc(Cc2ccc(OCCc3ccc(Cl)c(Cl)c3)cc2)n1
[A] < 3.82

----------
target: Trypsin (Homo sapiens, UniProt P07477+P07478+P35030); test: Inhibition of trypsin; format: protein assay
For each record, write down the corresponding Ki app.
Give your result in nM as a bare value.

[Q] Query: Ki app; subject: CC(C)OC(=O)N[C@@H](CCCCN)C(=O)c1noc(Cc2ccc(OCCc3ccc(Cl)c(Cl)c3)cc2)n1.Cl
[A] 415

[Q] Next record, please: Cl.NCCCC[C@H](NC(=O)c1cccc(F)c1)C(=O)c1noc(Cc2ccc(OCCc3ccc(Cl)c(Cl)c3)cc2)n1
[A] 1700

[Q] Next record, please: Cl.NCCCC[C@H](NC(=O)c1ccco1)C(=O)c1noc(Cc2ccc(OCCc3ccc(Cl)c(Cl)c3)cc2)n1
[A] 480

[Q] Next record, please: Cl.NCCCC[C@H](NC(=O)c1ccc(F)c(F)c1)C(=O)c1noc(Cc2ccc(OCCc3ccc(Cl)c(Cl)c3)cc2)n1
[A] 3300

[Q] Next record, please: CC(C)(C)COC(=O)N[C@@H](CCCCN)C(=O)c1noc(Cc2ccc(OCCc3ccc(Cl)c(Cl)c3)cc2)n1.Cl
[A] 1900

[Q] Next record, please: COCC(=O)N[C@@H](CCCCN)C(=O)c1noc(Cc2ccc(OCCc3ccc(Cl)c(Cl)c3)cc2)n1.Cl
[A] 190

[Q] Next record, please: Cl.NCCCC[C@H](NC(=O)c1ccccc1F)C(=O)c1noc(Cc2ccc(OCCc3ccc(Cl)c(Cl)c3)cc2)n1
[A] 1100

[Q] Next record, please: Cl.NCCCC[C@H](NC(=O)N1CCOCC1)C(=O)c1noc(Cc2ccc(OCCc3ccc(Cl)c(Cl)c3)cc2)n1
[A] 870

[Q] Next record, please: CCCCCC(=O)N[C@@H](CCCCN)C(=O)c1noc(Cc2ccc(OCCc3ccc(Cl)c(Cl)c3)cc2)n1.Cl
[A] 180

[Q] Next record, please: Cl.NCCCC[C@H](NC(=O)C(F)(F)F)C(=O)c1noc(Cc2ccc(OCCc3ccc(Cl)c(Cl)c3)cc2)n1
[A] 220

[Q] Next record, please: CCOC(=O)N[C@@H](CCCCN)C(=O)c1noc(Cc2ccc(OCCc3ccc(Cl)c(Cl)c3)cc2)n1.Cl
[A] 380

[Q] Next record, please: CN(C)C(=O)N[C@@H](CCCCN)C(=O)c1noc(Cc2ccc(OCCc3ccc(Cl)c(Cl)c3)cc2)n1.Cl
[A] 850

[Q] Next record, please: COCCOC(=O)N[C@@H](CCCCN)C(=O)c1noc(Cc2ccc(OCCc3ccc(Cl)c(Cl)c3)cc2)n1.Cl
[A] 500

[Q] Next record, please: Cl.NCCCC[C@H](NC(=O)C1CCOC1)C(=O)c1noc(Cc2ccc(OCCc3ccc(Cl)c(Cl)c3)cc2)n1 (stereo partly specified)
[A] 1100

[Q] Next record, please: Cc1cc(C(=O)N[C@@H](CCCCN)C(=O)c2noc(Cc3ccc(OCCc4ccc(Cl)c(Cl)c4)cc3)n2)c(C)o1.Cl
[A] 3900

[Q] Next record, please: COC(=O)N[C@@H](CCCCN)C(=O)c1noc(Cc2ccc(OCCc3ccc(Cl)c(Cl)c3)cc2)n1.Cl
[A] 2200
